Data credit: patent US10022453B2

system_name: human kinesin spindle protein KSP/Eg5 (Homo sapiens, UniProt P52732)
Construct: The motor domain of the human kinesin spindle protein KSP/Eg5
Sequence (P52732 18-359 limits assumed): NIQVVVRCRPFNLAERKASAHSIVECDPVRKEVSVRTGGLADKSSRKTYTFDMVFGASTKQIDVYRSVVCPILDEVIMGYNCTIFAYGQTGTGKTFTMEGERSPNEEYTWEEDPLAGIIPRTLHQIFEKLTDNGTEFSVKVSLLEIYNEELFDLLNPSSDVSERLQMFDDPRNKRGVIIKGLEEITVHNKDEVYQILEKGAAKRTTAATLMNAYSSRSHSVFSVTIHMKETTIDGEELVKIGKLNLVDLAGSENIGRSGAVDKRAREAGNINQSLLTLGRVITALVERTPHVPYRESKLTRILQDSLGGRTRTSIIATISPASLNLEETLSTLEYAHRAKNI
procedure_summary: Inhibition of the kinesin spindle protein KSP/Eg5 (ATPase, malachite green)
conditions: 10 nM KSP motor domain, 500 μM ATP, 2 h RT
endpoint: IC50

The value of IC50 measured for the compound CC(C)(C)[C@H](c1cc(-c2cc(F)ccc2F)cn1Cc1ccccc1)N(CC[C@H](N)C(=O)N[C@H]1CC[C@@H](C(=O)NCCN2C(=O)CC(SC[C@H](N)C(=O)O)C2=O)C1)C(=O)CO.O=C(O)C(F)(F)F (some centres unmarked) turned out to be 9.61 nM

* * *

procedure_summary: Cell permeability, flux assay using Caco-2 cells
conditions: human, Caco-2
endpoint: Papp B→A at 2 h (×10⁻⁶ cm/s)
# unit: ×10⁻⁶ cm/s | format: bare number

# count of solved cases: 5
| molecule | Papp B→A at 2 h / ×10⁻⁶ cm/s |
| --- | --- |
| CC(C)(C)[C@H](c1cc(-c2cc(F)ccc2F)cn1Cc1ccccc1)N(CC[C@H](N)C(=O)NCCNC(=O)CC[C@H](N)C(=O)O)C(=O)CO.O=C(O)C(F)(F)F | 0.16 |
| CC(C)(C)[C@H](c1nc(-c2cc(F)ccc2F)cn1Cc1ccccc1)N(CC[C@H](N)C(=O)NN)C(=O)CO.O=C(O)C(F)(F)F | 48 |
| CC(C)[C@H](NC(=O)CCCCCN1C(=O)CC(SC[C@H](N)C(=O)O)C1=O)C(=O)N[C@@H](C)C(=O)N[C@@H](CCCCNC(=O)CCNC(=O)[C@@H](N)CCN(C(=O)CO)[C@@H](c1cc(-c2cc(F)ccc2F)cn1Cc1ccccc1)C(C)(C)C)C(=O)O (stereo partly drawn) | 0.16 |
| CC(C)(C)[C@H](c1nn(-c2cc(F)ccc2F)cc1Cc1ccccc1)N(CC[C@H](N)C(=O)NNC(=O)CCCCCN1C(=O)CC(SC[C@H](N)C(=O)O)C1=O)C(=O)CO.O=C(O)C(F)(F)F (stereo partly drawn) | 1.7 |
| C[C@H](NC(=O)CCNC(=O)[C@@H](N)CCN(C(=O)CO)[C@@H](c1nc(-c2cc(F)ccc2F)cn1Cc1ccccc1)C(C)(C)C)C(=O)N[C@@H](CCCNC(N)=O)C(=O)Nc1ccc(NC(=O)CN2C(=O)CC(SC[C@H](N)C(=O)O)C2=O)cc1 (stereo partly drawn) | 0.12 |

Lab note: CC(C)(C)[C@H](c1cc(-c2cc(F)ccc2F)cn1Cc1ccccc1)N(CC[C@H](N)C(=O)NCCN1C(=O)CC(SC[C@H](N)C(=O)O)C1=O)C(=O)CO.O=C(O)C(F)(F)F.O=C(O)C(F)(F)F (stereo partly drawn) gave Papp B→A at 2 h of 2.1

The recorded Papp B→A at 2 h for entry CC(C)[C@H](NC(=O)CCCCCN1C(=O)CC(SC[C@H](N)C(=O)O)C1=O)C(=O)N[C@@H](C)C(=O)N[C@@H](CCCCNC(=O)[C@@H](N)CCN(C(=O)CO)[C@@H](c1nc(-c2cc(F)ccc2F)cn1Cc1ccccc1)C(C)(C)C)C(=O)O.O=C(O)C(F)(F)F (stereo partly drawn) equals 0.098

Looking up `CC(C)(C)[C@H](c1nc(-c2cc(F)ccc2F)cn1Cc1ccccc1)N(CC[C@H](N)C(=O)NCCC(=O)O)C(=O)CO` , I found its Papp B→A at 2 h recorded as 5.8

Record summary for CC(C)(C)[C@H](c1cc(-c2cc(F)ccc2F)cn1Cc1ccccc1)N(CC[C@H](N)C(=O)NCCNC(=O)CN1C(=O)CC(SC[C@H](N)C(=O)O)C1=O)C(=O)CO.O=C(O)C(F)(F)F (stereo partly drawn) : reported Papp B→A at 2 h = 0.78

* * *

procedure_summary: Cell permeability, flux assay using Caco-2 cells
conditions: human, Caco-2
# reported efflux ratio at 2 h; entries follow
Please state the value as a number alone, without comment.

| compound | efflux ratio at 2 h |
| --- | --- |
| C[C@H](NC(=O)CCNC(=O)[C@@H](N)CCN(C(=O)CO)[C@@H](c1nc(-c2cc(F)ccc2F)cn1Cc1ccccc1)C(C)(C)C)C(=O)N[C@@H](CCCNC(N)=O)C(=O)O.O=C(O)C(F)(F)F | 2.7 |

// moving on: another record for efflux ratio at 2 h
// CC(C)[C@H](NC(=O)CCCCCN1C(=O)CC(SC[C@H](N)C(=O)O)C1=O)C(=O)N[C@@H](C)C(=O)N[C@@H](CCCCNC(=O)CCNC(=O)[C@@H](N)CCN(C(=O)CO)[C@@H](c1cc(-c2cc(F)ccc2F)cn1Cc1ccccc1)C(C)(C)C)C(=O)O (some centres unmarked) : efflux ratio at 2 h value = 1

* * *

procedure_summary: in vitro
conditions: human, Caco-2
efflux ratio at 2 h below 2 gives F; efflux ratio at 2 h at or above it gives T.

A selection of reference data follows.
| compound | discrete_label |
| --- | --- |
| CC(C)(C)[C@H](c1nc(-c2cc(F)ccc2F)cn1Cc1ccccc1)N(CC[C@H](N)CN)C(=O)CO.O=C(O)C(F)(F)F | T |
| CC(C)(C)[C@H](c1nc(-c2cc(F)ccc2F)cn1Cc1ccccc1)N(CCCN)C(=O)CSCCC(NC(=O)CCOCCOCCOCCOCCNC(=O)CCN1C(=O)CC(SC[C@H](N)C(=O)O)C1=O)C(=O)O.O=C(O)C(F)(F)F.O=C(O)C(F)(F)F (mixture of isomers) | F |
| C[C@H](NC(=O)CCNC(=O)[C@@H](N)CCN(C(=O)CO)[C@@H](c1nc(-c2cc(F)ccc2F)cn1Cc1ccccc1)C(C)(C)C)C(=O)N[C@@H](CCCNC(N)=O)C(=O)Nc1ccc(NC(=O)CN2C(=O)CC(SC[C@H](N)C(=O)O)C2=O)cc1 (stereo partly drawn) | T |
| CC(C)[C@H](NC(=O)CCNC(=O)[C@@H](N)CCN(C(=O)CO)[C@@H](c1nc(-c2cc(F)ccc2F)cn1Cc1ccccc1)C(C)(C)C)C(=O)N[C@@H](CCCNC(N)=O)C(=O)O.O=C(O)C(F)(F)F | T |
| C[C@@H](NC(=O)[C@@H](N)CCN(C(=O)CO)[C@@H](c1nc(-c2cc(F)ccc2F)cn1Cc1ccccc1)C(C)(C)C)C(=O)NCCCC[C@H](N)C(=O)O.O=C(O)C(F)(F)F | T |
| C[C@H](NC(=O)CCNC(=O)[C@@H](N)CCN(C(=O)CO)[C@@H](c1nn(-c2cc(F)ccc2F)cc1Cc1ccccc1)C(C)(C)C)C(=O)N[C@@H](CCCNC(N)=O)C(=O)Nc1ccc(N2C(=O)CC(SC[C@H](N)C(=O)O)C2=O)cc1.O=C(O)C(F)(F)F (stereo partly drawn) | F |
| CC(C)(C)[C@H](c1cc(-c2cc(F)ccc2F)cn1Cc1ccccc1)N(CC[C@H](N)C(=O)NCCNC(=O)CSC[C@H](N)C(=O)O)C(=O)CO.O=C(O)C(F)(F)F | T |

Req: Check if efflux ratio at 2 h >= 2 (inclusive). Item: `CC(C)(C)[C@H](c1nc(-c2cc(F)ccc2F)cn1Cc1ccccc1)N(CC[C@H](N)C(=O)NCCCC[C@H](N)C(=O)O)C(=O)CO.O=C(O)C(F)(F)F`
Resp: T

* * *

procedure_summary: Cell permeability, flux assay using Caco-2 cells
conditions: human, Caco-2
Please respond with 1 when measured Papp B→A at 2 h is strictly beneath 2 ×10⁻⁶ cm/s, and with 0 in all other cases.

Examples with answers:
| compound | discrete_label |
| --- | --- |
| CC(C)(C)[C@H](c1cc(-c2cc(F)ccc2F)cn1Cc1ccccc1)N(CCCN)C(=O)CSCCCCCC(=O)NCCN1C(=O)CC(SC[C@H](N)C(=O)O)C1=O.O=C(O)C(F)(F)F.O=C(O)C(F)(F)F (stereo partly shown) | 0 |
| CC(C)(C)[C@H](c1nn(-c2cc(F)ccc2F)cc1Cc1ccccc1)N(CC[C@H](N)C(=O)NCCNC(=O)CSC[C@H](N)C(=O)O)C(=O)CO.O=C(O)C(F)(F)F | 1 |

Req: Find out if reported Papp B→A at 2 h for `CC(C)(C)[C@H](c1nn(-c2cc(F)ccc2F)cc1Cc1ccccc1)N(CCCN)C(=O)CO` is less than 2 ×10⁻⁶ cm/s
Resp: 0

Req: Is the reported Papp B→A at 2 h for `CC(C)(C)[C@H](c1cc(-c2cc(F)ccc2F)cn1Cc1ccccc1)N(CC[C@H](N)C(=O)NCCC(=O)NCCCC[C@H](N)C(=O)O)C(=O)CO.O=C(O)C(F)(F)F` strictly below 2 ×10⁻⁶ cm/s?
Resp: 1

Req: Quick check: does `C[C@@H](NC(=O)[C@@H](N)CCN(C(=O)CO)[C@@H](c1nc(-c2cc(F)ccc2F)cn1Cc1ccccc1)C(C)(C)C)C(=O)NCCCC[C@H](N)C(=O)O.O=C(O)C(F)(F)F` have Papp B→A at 2 h under 2 ×10⁻⁶ cm/s?
Resp: 1
